assay method text: NCI Yeast Anticancer Drug Screen. Data for the rad50 strain (AID 155);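 also: 0% = growth of vehicle-only cultures of the same strain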
assay context: S. cerevisiae rad50 strain growth inhibition; at 50.0 µM; stronger effect = higher value
About 79,000 compounds went through this panel and 15% of them were active in at least one assay; those are over-represented in the sample as a whole. Calls of active or inactive are those of the source. Rule as the data show it: active = growth inhibition above about 70%; inactive = the rest.
# growth inhibition per entry

Need growth inhibition, item CCCCC(CC)CNCC(CC)CCCC (centres undefined)
33.8% (inactive)

---

# growth inhibition per entry
assay method text: NCI Yeast Anticancer Drug Screen. Data for the mec2-1 strain (AID 157)
assay context: S. cerevisiae mec2-1 strain, at 50.0 µM, stronger effect = higher value
The panel holds about 79,000 compounds, 15% with a hit somewhere; the sample as a whole holds those more often.
Reply numerically in %, unit not repeated.

Observe how each entry below is paired with its result.
compound: Cc1ccc(S(=O)(=O)Nn2c(O)c(C#N)c(-c3ccc([N+](=O)[O-])cc3)c(C#N)c2=O)cc1
unit string: %
numeric value: 6.9
//
compound: O=C(N/N=C/c1ccc(Br)cc1)N/N=C/c1ccc(Br)cc1
unit string: %
numeric value: -15.7
//
compound: C=CCc1cc2c(cc1COC(C)=O)OCO2
unit string: %
numeric value: -17.9
//
compound: O=C(O)c1c(Br)c(Br)c(Br)c(Br)c1C(=O)Nc1ccc([N+](=O)[O-])cc1
unit string: %
numeric value: 2.65
//
compound: CC1=Nc2c(C)noc2CC(c2ccccc2O)C1 (stereo unspecified)
unit string: %
numeric value: -2.6
//
compound: O=C(NC(=S)Nc1cccc(Cl)c1)c1ccccc1
unit string: %
numeric value: 26.5

Need growth inhibition, item O=Cc1ccc(F)cc1[N+](=O)[O-]
3.65

Need growth inhibition, item O=C1c2ccccc2C(=O)N1c1ccc(C(F)(F)F)cc1[N+](=O)[O-]
16.2

Need growth inhibition, item Cc1ccc(O)cc1C(=O)O
-14.7

Need growth inhibition, item Cc1cc2nc3c(C(O)C(O)C(O)CO)nn(-c4ccccc4)c3nc2cc1C (stereo unspecified)
5.05

Need growth inhibition, item COc1nc(N)c(C(=O)CCl)c(=O)n1C
-7.5

---

assay method text: NCI Yeast Anticancer Drug Screen. Data for the mlh1 rad18 strain (AID 175)
assay context: S. cerevisiae mlh1 rad18 strain growth inhibition; at 50.0 µM; stronger effect = higher value
Compounds without any hit were thinned out: in the full panel of roughly 79,000, 15% have a hit.
readout type: growth inhibition (%)
Reply numerically in %, unit not repeated.

Observe how each entry below is paired with its result.
compound: CCn1c(C)[n+](CC)c2ccc(C(C)=O)cc21
growth inhibition, %: -8.75
//
compound: CC(C)=CCCc1cc(-c2cc(CCC=C(C)C)nc(N)n2)nc(N)n1
growth inhibition, %: 15.1
//
compound: CN1C2CC(=O)CC1[C@@H]1OC(c3ccccc3)O[C@H]21 (stereo not given in full)
growth inhibition, %: 19.5
//
compound: CC(=O)Nc1cc(F)c(N)c(F)c1
growth inhibition, %: -3.8
//
compound: CC(=N\N=C\c1ccccn1)/C(C)=N/N=C(C)/C(C)=N/N=C(C)/C(C)=N/N=C/c1ccccn1
growth inhibition, %: -34

Need growth inhibition, item NC1CC1
-22.9

Need growth inhibition, item O=C(c1nc2ccc(Cl)cc2[nH]c1=O)C(O)c1ccco1 (stereo not given)
-13.2

Need growth inhibition, item CCOC(=O)Cc1nc2sc(C)c(-c3ccccc3)c2c(=O)[nH]1
31.4

Need growth inhibition, item Cc1c(C(=O)Nc2ccc(Cl)c(C(F)(F)F)c2)oc2cc(O)ccc2/c1=N\NC(N)=S
-17.4

Need growth inhibition, item C/C=C(/C)C(=O)O[C@@H]1c2c(C)coc2C(=O)[C@@]2(OC(C)=O)CCC[C@@](C)(O)[C@@]12C
43.9

Need growth inhibition, item COc1ccc(C2SC(N)=Nc3c2c(C)nn3C(=O)c2ccc(Cl)cc2)cc1 (stereo not given)
7.8

---

assay method text: NCI Yeast Anticancer Drug Screen. Data for the mlh1 rad18 strain (AID 175)
assay context: S. cerevisiae mlh1 rad18 strain growth inhibition; at 50.0 µM; stronger effect = higher value
This is part of a sample that, as a whole, favours compounds with a hit. Of some 79,000 tested, about 15% had one in any assay.
Short version: growth inhibition at least 20% is criterion met, less is criterion not met.

molecule: CC(C)(CCl)c1ccccc1
class: criterion not met

molecule: S=C(CC(=S)N1CCOCC1)N1CCOCC1
class: criterion not met

molecule: NC(=O)CNC(=O)c1ccc(N)cc1
class: criterion not met

molecule: CCCCOC1NC(=O)Oc2ccccc21 (configuration not stated)
class: criterion not met

molecule: N=c1c2ccccc2nc2oc3ccc(Cl)cc3n12
class: criterion not met

Answer whether growth inhibition of OC(c1cc2ccccc2c2ccccc12)C1CCCCN1 (configuration not stated) is greater than or equal to 20%.
criterion met

Answer whether growth inhibition of CSc1cc(Cl)c(C)cc1S(=O)(=O)NC(=O)NNc1cccc(C(F)(F)F)n1 is greater than or equal to 20%.
criterion met

---

# growth inhibition per entry
assay method text: NCI Yeast Anticancer Drug Screen. Data for the mlh1 rad18 strain (AID 175)
assay context: S. cerevisiae mlh1 rad18 strain growth inhibition; at 50.0 µM; stronger effect = higher value
This is part of a sample that, as a whole, favours compounds with a hit. Of some 79,000 tested, about 15% had one in any assay. Where a SMILES comes first, the peptide text is derived from it. The star is where a group is joined. Cbz = O=C(OCc1ccccc1)*
Reply numerically in %, unit not repeated.

Observe how each entry below is paired with its result.
molecule: CCOC(=O)c1nc2cc(N3CCOCC3)c(F)cc2[nH]c1=O
growth inhibition, %: 34
//
molecule: NC(=O)C(=O)C(c1ccccc1)S(=O)(=O)Cc1ccccc1 (stereo not given)
growth inhibition, %: -32.1
//
molecule: CCC(c1ccc(OC)cc1)C(C(C)=O)c1ccc(OC)cc1 (stereo not given)
growth inhibition, %: -5.85
//
molecule: Cc1ccc(NC(=O)OCC(F)(F)C(F)(F)C(F)(F)F)c(NC(=O)OCC(F)(F)C(F)(F)C(F)(F)F)c1
growth inhibition, %: 12.8

Need growth inhibition, item CC(NC(=O)C(Cc1ccc(O)cc1)NC(=O)C(C)NC(=O)OCc1ccccc1)C(=O)O (stereo not drawn) (Cbz-Ala-Tyr-Ala-OH; configuration not given here)
16.9

---

# growth inhibition per entry
assay method text: NCI Yeast Anticancer Drug Screen. Data for the mlh1 rad18 strain (AID 175)
assay context: S. cerevisiae mlh1 rad18 strain growth inhibition; at 50.0 µM; stronger effect = higher value
Description: Growth inhibition of yeast strains with defined genetic alterations is measured as a screen for potential anti-cancer activity. Selected strains with alterations in DNA damage repair or cell cycle control were exposed to compounds and growth inhibition was measured relative to vehicle treated controls. The strain used in this assay is mlh1 rad18
This is part of a sample that, as a whole, favours compounds with a hit. Of some 79,000 tested, about 15% had one in any assay.
Reply numerically in %, unit not repeated.

Observe how each entry below is paired with its result.
compound: Cc1cc(N2CCOCC2)nc2ccc(Cc3ccc4nc(N5CCOCC5)cc(C)c4c3)cc12
readout type: growth inhibition
numeric value: -4.4

compound: O=C(Nc1ccccc1-c1n[nH]c(=S)[nH]c1=O)C(F)(F)F
readout type: growth inhibition
numeric value: 30.8

Need growth inhibition, item Cc1cc(Cl)ccc1OCCCC(=O)NC(Cc1c[nH]c2ccccc12)C(=O)O (stereo not given)
9.35

Need growth inhibition, item CCNCC(OC)C(COC)OC(=O)c1ccc([N+](=O)[O-])cc1 (stereo not given)
7.25

Need growth inhibition, item Cc1ccc(S(=O)(=O)Nn2c(O)c(C#N)c(-c3ccc(N(C)C)cc3)c(C#N)c2=O)cc1
-20.9

---

# growth inhibition per entry
assay method text: NCI Yeast Anticancer Drug Screen. Data for the rad50 strain (AID 155);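 also: 0% = growth of vehicle-only cultures of the same strain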
assay context: S. cerevisiae rad50 strain growth inhibition; at 50.0 µM; stronger effect = higher value
Compounds without any hit were thinned out: in the full panel of roughly 79,000, 15% have a hit.
Reply numerically in %, unit not repeated.

Observe how each entry below is paired with its result.
molecule: Cc1ccccc1C1OC2=C(Nc3ccc(Cl)cc3N2)C1=O (centres undefined)
growth inhibition / %: 15.6

molecule: CCCCCCCCCCCCCCCC(=O)OCC1OC(n2ccc(N)nc2=O)C(O)C1O (centres undefined)
growth inhibition / %: -1.2

molecule: O=C(N/N=C/c1ccc(O)cc1)c1ccccc1NC(=O)C1CC1
growth inhibition / %: 3.25

molecule: N#Cc1c(N)[nH]c(=S)c(C#N)c1-c1ccccc1
growth inhibition / %: 45.9

molecule: Cc1nc2ccccc2nc1CC(=O)c1ccccc1
growth inhibition / %: 43.3

Need growth inhibition, item CC(O)COc1ccc(C(C)(C)C)cc1 (centres undefined)
3.25

Need growth inhibition, item Clc1ccccc1-c1nnc(-c2cccc(-c3nnc(-c4ccccc4Cl)o3)n2)o1
-1.65

Need growth inhibition, item CC1=NN(c2ccccc2)C(N)C1 (centres undefined)
17.7

Need growth inhibition, item CCCCCn1c(=O)c2c(=O)[nH][nH]c2c2ccccc21
-16.3

Need growth inhibition, item CCOC(=O)c1ccc(Nc2nc3ccc(C(F)(F)F)cc3nc2C(=O)OCC)cc1
-24.6

Need growth inhibition, item CC12CCC(C/C1=N\N=C(N)N)C2(C)C (centres undefined)
7.55

Need growth inhibition, item CCCCC(C(=O)O)C1CCCCC1 (centres undefined)
-12.3
